The measured values listed here are drawn from the supplement of paper PMC3334620.

molecular target: Cst6 (UniProt P40535); assay: PBM E-score (8-mer binding enrichment) (E-score (-0.5 to 0.5)); higher = stronger / more preferred TF binding; conditions: protein concentration: 200 nM; construct: GST-DNA-binding domain
Sequence (P40535 whole entry, the tested form may be a part): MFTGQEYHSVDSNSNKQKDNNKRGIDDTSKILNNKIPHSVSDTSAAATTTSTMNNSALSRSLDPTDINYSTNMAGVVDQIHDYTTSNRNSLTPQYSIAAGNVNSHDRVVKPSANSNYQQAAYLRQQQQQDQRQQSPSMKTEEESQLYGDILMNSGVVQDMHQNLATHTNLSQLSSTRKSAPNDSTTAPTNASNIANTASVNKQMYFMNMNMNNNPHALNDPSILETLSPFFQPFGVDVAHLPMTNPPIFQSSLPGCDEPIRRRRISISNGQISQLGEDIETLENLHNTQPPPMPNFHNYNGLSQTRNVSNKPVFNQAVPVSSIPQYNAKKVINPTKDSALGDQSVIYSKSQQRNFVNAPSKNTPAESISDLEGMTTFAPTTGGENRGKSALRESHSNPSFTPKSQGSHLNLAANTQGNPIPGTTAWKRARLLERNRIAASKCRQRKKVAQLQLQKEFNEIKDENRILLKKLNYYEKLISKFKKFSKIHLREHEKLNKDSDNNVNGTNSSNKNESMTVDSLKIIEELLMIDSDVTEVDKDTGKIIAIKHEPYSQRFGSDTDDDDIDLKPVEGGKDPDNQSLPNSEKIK
Whole data set: some 33,000 sequences, median “E-score (-0.5 to 0.5)” near -0.016, cut for the highest 2% near 0.31. The list comes from a sample in which the highest values are over-represented; it also holds close analogues and randomly drawn sequences.
measured_endpoint: PBM E-score
Please reply with the number alone, leaving off any unit.

Return reported PBM E-score; argument: GTAATATA 0.354

Please look up its PBM E-score: CATGATGG -0.0379

Quick one: PBM E-score of AAAAGGTA ? -0.0898

What does the record list as PBM E-score for GATGATCA ? 0.171

PBM E-score lookup needed for CTAAATTA , thanks. 0.262

Quick one: PBM E-score of ACCGTCCC ? -0.173

// returns reported PBM E-score for input GCTGATGA 0.278

Param item = CAAGGTTC ; retrieve measured PBM E-score. -0.155

Entry under review: ATAAATAG . Reported PBM E-score? 0.135

Look up PBM E-score for this sequence: AAGGAGGG -0.0908

Entry AGGCCCAC has what PBM E-score? -0.378

# input sequence: GGCAGGCC ; wanted: its PBM E-score -0.332

Fill in the blank: the reported PBM E-score of GCGTGACA is ____. 0.255

# input sequence: AAGAAAGT ; wanted: its PBM E-score 0.153

Need PBM E-score, item GCACCAGC -0.176

Item CCTCTCCC has what recorded PBM E-score? -0.367

For the sequence ATAAATAA , what PBM E-score is on record? 0.335

Record request: PBM E-score value, item GATGATGA 0.319

Return reported PBM E-score; argument: TTAAATAA 0.18

Consider the sequence shown here: GAGATCGA What is its recorded PBM E-score? 0.0615

Look up PBM E-score: ATAAATTG 0.258

Could you share which PBM E-score value was measured for GTATAATA ? 0.288

====

target: Cst6 (UniProt P40535); assay: PBM E-score (8-mer binding enrichment) (E-score (-0.5 to 0.5)); higher = stronger / more preferred TF binding; conditions: protein concentration: 200 nM; construct: GST-DNA-binding domain
In all, about 33,000 sequences were measured (“E-score (-0.5 to 0.5)”: median about -0.016, highest 2% from about 0.31 on). Many of the other results were omitted from the sample, so the highest values are more common in it than they were.
Binning rule for recorded PBM E-score: bin 1: < -0.02; bin 2: ≥ -0.02 and < 0.2; bin 3: ≥ 0.2

Looking at GCGCTCAA , which class would you pick? bin 1

Dear colleague, I would appreciate it if you could identify the bin for AAAATTAT and reply at your convenience. bin 3

Hello team, could you let me know which band the following sequence falls into: CTGGGACA bin 1

Which bin should I file GTGACCTA under? bin 2

State the band of ATGACCTG bin 2

Any idea which band ATAATTAA is in? bin 3

Form: Item = CACGTGCG ; Class = ? bin 1

Exam item: assign ATGACCTA to the correct category. bin 3

Record CTGACCTA — which class? bin 2

Please report the category associated with GTAGCGAC , nothing else. bin 1

Bin? AACAGAAA bin 3

Class label required: CATTGACA bin 2

State the class of the sequence shown: TTAATTAA bin 2

// bin(item) where item = ACGGGACG bin 1

Could you place AAAATTAC in its proper category? Many thanks. bin 3

# bin lookup: classify GATATTAC by its PBM E-score bin 3

For the record AAGCCATG , report the class its PBM E-score corresponds to. bin 1

Band assignment needed for CATTGACG please. bin 3

Which of the defined bands does the recorded PBM E-score of AGAACCGA sit within? bin 1

# classify by PBM E-score band: CTGACCTC bin 2

Any idea which band GGGTGACA is in? bin 3

# classify by PBM E-score band: CATATTAC bin 3
